Here, molecules appear alongside IC50 reported for Retinoic acid receptor beta (Homo sapiens) in the literature.
State the answer as a number, implicitly in µM.

response.value for CCCCCCCOc1cc2c(cc1/C(C)=C/c1ccc(C(=O)O)cc1)C(C)(C)CCCS2(=O)=O (field: IC50) = 3

response.value for CCCCCOc1cc2c(cc1/C=C/C=C/C(C)=C/C(=O)O)C(C)(C)CCC2(C)C (field: IC50) = 9.3

response.value for CCCCCCCOc1cc2c(cc1/C(C)=C/C=C/C(C)=C/C(=O)O)C(C)(C)CCCS2(=O)=O (field: IC50) = 6.4

response.value for CC(/C=C/C1=C(c2ccc3c(c2)C(C)(C)CCC3(C)C)CCC1)=C\C(=O)O (field: IC50) = 2.5

response.value for CCCCCCc1cc2c(cc1/C=C/C=C/C(C)=C/C(=O)O)C(C)(C)CCC2(C)C (field: IC50) = 2.9

response.value for CCCCCCc1cc2c(cc1/C=C/c1ccc(C(=O)O)cc1)C(C)(C)CCC2(C)C (field: IC50) = 2.3

response.value for CCCCCCCOc1cc2c(cc1C#Cc1ccc(C(=O)O)cc1)C(C)(C)CCS2(=O)=O (field: IC50) = 3.5

response.value for CC1=C(/C=C/c2sccc2/C=C/C(C)=C/C(=O)O)C(C)(C)CCC1 (field: IC50) = 1
